Test: folding stability dG unfold (combined trypsin and chymotrypsin); higher = more stable

chain.sequence	folding stability dG unfold
SAGMKIKIIKLDKNLEELSEEELKKLLEELAKKGLVEKKKDGKKVIPLTVIDKKTKKTYTFYIEIEKPPSAG [r5_243_TrROS_Hall]	2.33 kcal/mol
SAGGMNVSYLFSKSVPKEEIEAYLKKLDPNKKYKFEELEPEEIEKLPESIEVIEKPVDETLRLVLVEESAGG [r13_649_JUSTAS]	0.473 kcal/mol
SAEYTPVGPNEDAEVWEVPNLGKLFTIDPKDDVVEITEVHFDDGDLSPHPHTVRVDVPEEDRDRLRDLLSAG [r14_245_TrMRF]	-0.213 kcal/mol
SAGGSAGGSAMEITITVPKENEEEVLEAAKKALEELGIEEVKVEKLEDGTYKVTARVKPGLSAGGSAGGSAG [r3_335_TrROS_Hall]	0.361 kcal/mol

* * *

Experiment: folding stability dG unfold (combined trypsin and chymotrypsin); higher = more stable

chain.sequence	folding stability dG unfold, kcal/mol
SAPLKIDLDIEPIPPGDKVRFNARITYPDGHPIRIPFEIYVPPDEIVIKFPIQDPKNGEPIAPLTFVIKSAG [r14_670_TrROS]	1.67
SGATLFIGRFPGEGTLIAVAKLPNGKEIVISFGNYPEGIAGIAALARELDPRAEIKHIELVPPDSVPPEFSA [r9_137_TrMRF]	1.45
SAGGSAGGSMVEEFLASLPPDATVTVDPSTGVVTVSLPAEGRTLTLTVDTATGTVTETERRPESAGGSAGGS [r12_82_JUSTAS]	1.71
SASSFPPGSTATLTVRVTDPAGTATTTLTIPLSVDPSTGKAVSLEEVYEILKELGVDPANVTITSLTVSSAG [r14_93_JUSTAS]	3.07

* * *

Test: folding stability dG unfold (combined trypsin and chymotrypsin); higher = more stable
folding stability dG unfold for assorted sequences

chain.sequence	folding stability dG unfold
SAGLKEIAKKLGLSEEKIKIKEIKKKKKVVYDKKTKKKYEKEEIVIKIEIVDPKTKKKYEIEIPLEEIKSAG [r5_517_TrROS_Hall]	2.55 kcal/mol
SAGMNLDNMKIKEIKLQVNPDGSVEVPFEFRFPNGKPMKVSMRVNNGMIEIYYPNGWPITIDIPPGAFSAGG [r19_84_TrROS]	1.36 kcal/mol
SAGGSAGGSAGDEWITIWFLFPSPEQAKDIADPLASNGLNIDVETHRMPDGNYWVNITIPSAGGSAGGSAGG [r11_677_TrROS]	2.9 kcal/mol
SAGGSAGGSAGGSGVRLRFPADYPELVEKLAKAFGLKPKSFNPDTGEVDIGNEPGAKIVSAGGSAGGSAGGS [r4_3_TrMRF]	< -1 kcal/mol
SAGGSAGGMTLEIEVNGKKIKIEVIKDKETNRYFVRITVDGKEVLIEADSKEDALKAIKELLKKSAGGSAGG [r6_715_TrROS_Hall]	4.12 kcal/mol
SAPPLPPETITLTLTIDGYEITVTLTRLPDGTVKLTVTVTLPDGTTVTITMYFDAKTNKWYITKIEITPPSA [r9_795_TrROS_Hall]	5.26 kcal/mol
SAGGGSSMPRRRALPDGTALETTLGDSVATVRATRYVGDRPLETAERVLPDVPPDVDAEVDFDLPPGSAGGS [r8_155_JUSTAS]	< -1 kcal/mol
SAGGSAGGSAGGLDLSVPGLTSVTPVLLEDPRGYVTTVYTTTYPDGTVLTHTTVLPASLLSAGGSAGGSAGG [r7_214_JUSTAS]	1.16 kcal/mol
SAGGSAGGSAGGMITVKDPATGKWREVTPEELEEVLAANPGPITVEREGGRRTVPAALLSAGGSAGGSAGGS [r10_839_JUSTAS]	< -1 kcal/mol
SAEMTEEERARRLAEKLREELEELGVEKVEIEFDEEERRVTVRVTLSPEVREKLAERLGLSREELDALLSAG [r14_688_TrROS_Hall]	3.43 kcal/mol
SAGGSAGGSAGGIKPGEKPVYKVKIYNEETGEELEVEFKTLEELEKLKIPGVKKIEVEKVSAGGSAGGSAGG [r7_793_TrROS_Hall]	1.2 kcal/mol
SMKIKIPVLIKVDPSETIEEVLEKVKEIAEEIAKFLESKGGPVEVKADVEPIPEIDYVIVTVEAYVPEEASA [r9_1161_TrMRF]	1.54 kcal/mol
SAGGNLMIRVELYRPKPDPEGEWQKREVTLPMPPGEPIEELIDELRPPGWVIEIDIFDNGKPIREYYIRSAG [r5_278_TrROS]	2.34 kcal/mol
SAGGSAGGSASNVKILGLVSVDPETGLVRLAAYDPETGKVLYFIAPNADGEPLLLEVEENPGSAGGSAGGSA [r18_296_TrMRF]	2.21 kcal/mol
SAGMKIKVEVKETGETYEIEISEEELKKKLKEKFPEVKEITVVVEDPEDMSEEELREKALKAAEELLKSAGG [r19_298_TrROS_Hall]	2.28 kcal/mol
SAGGSAGGSAGSYEFDPSKSALVRVTLQPPDGVPVEIEIPVEELEEILPGDRPVLSIEVSSAGGSAGGSAGG [r17_449_JUSTAS]	-0.838 kcal/mol
SAGGSAGGSASSIVLTKTPGSYVLTEVELSSSTYPPSPPDYGSVVTVTPLEVVEREPGVPLPSAGGSAGGSA [r18_255_JUSTAS]	0.176 kcal/mol
SAGGSAGGSAGGGMSFKKRKGSISLTLRVTLTLPNGTPATLDIELELEEETVEPVYPELESAGGSAGGSAGG [r7_926_JUSTAS]	4.19 kcal/mol
SKKVKITEITFPEGATFDGKKVTVTIKIVDEETGTVTITEITVDKNGKVTIKEVTVKVDPKTGKIVEITPSA [r9_122_TrROS_Hall]	1.8 kcal/mol
SAGGSAGGSSLTLRLRLRLRVRVLDEETGELSEFEVEVELELRFEPAPPPPPPPLVLRDGKLVSAGGSAGGS [r12_140_TrROS_Hall]	4.34 kcal/mol
SAGGSAGGSAGGPEGQWIDMDVEHNPKNNKLTIKFPDSGKPITIPANNIERVGDYIRINSAGGSAGGSAGGS [r10_942_TrROS]	< -1 kcal/mol
SAGGSAGGSAKWIYIMLPFPEGQKVEIEYPNGRKHSYEQTPDGMLMIRVRRPNAPIKIKIKSAGGSAGGSAG [r3_334_TrROS]	2.4 kcal/mol
SAGGSAGGSGDKSPPLVPTVTLKTTDPDAVEKAVKAAGVAVTRYPGKGYYTFRKADVEKILKSSAGGSAGGS [r12_325_TrMRF]	< -1 kcal/mol
SAGGSAGGSAGGKKTITVTVKINGKTYRVEIKYDEKTKKVTIKIEVNGKKYEFEFELKDSAGGSAGGSAGGS [r10_438_TrROS_Hall]	4.54 kcal/mol
SAGGMPPVKVPVKVTISMKDPKTGKTFTVPVEKVATSEEDLEEIKKEVEELAKELKEKGYKEIEIKIESAGG [r13_360_JUSTAS]	2.87 kcal/mol
SAGGSAMEIDIDPEKNEIRIYNPWNGQPHPFTIESIEPIDPDNKYFKFKIKYPDTGKEMPFMVQIDSAGGSA [r15_209_TrROS]	1.08 kcal/mol
SAGGPYEFWFTITIDYPDLTPKQAVEEARKILRKLGFEITDIPVQVDPDPGWITVMARITIRPPEDASAGGS [r16_287_TrROS]	3.58 kcal/mol
